Details: 323.15 K; 101 kPa
± gives the uncertainty stated by the source.
propertyMeasured: viscosity

structureNotation: O=C(O)CCl
endpointValue: 3.091 ± 0.03 mPa·s

structureNotation: CC[n+]1ccn(C)c1.COS(=O)(=O)[O-]
endpointValue: 28.33 ± 0.49 mPa·s

structureNotation: ClC(Cl)Cl
endpointValue: 0.491 ± 0.013 mPa·s

structureNotation: CCCCCCCCCCCCCC[P+](CCCC)(CCCC)CCCC.CCCCCCCCCCCCc1ccccc1S(=O)(=O)[O-]
endpointValue: 750 ± 46 mPa·s

====

Settings: 308.15 K; 101 kPa
± gives the uncertainty stated by the source.
Reported viscosity values for a set of compounds

structureNotation: O=CC(Cl)(Cl)Cl
viscosity: 0.9017 ± 0.0089 mPa·s
--
structureNotation: CCn1cc[n+](C)c1.C[C@H](N)C(=O)[O-]
viscosity: 137.5 ± 6.2 mPa·s
--
structureNotation: CC(C)C(=O)O
viscosity: 1.047 ± 0.0064 mPa·s
--
structureNotation: ClC(Cl)Cl
viscosity: 0.482 ± 0.005 mPa·s

Data provenance: the CheMixHub viscosity set
